Target: WT TTR (Homo sapiens (Human), UniProt P02766)
Assay: Acid-mediated fibril formation assay for TTR amyloidogenesis (turbidity)
Conditions: ligand 7.2 μM, TTR 3.6 μM, pH 4.4, 37° C., 72 h; no ligand = 100%
The following compounds are shown together with reported % fibril formation values.
State just the number; it will be interpreted in %.

Measured % fibril formation of COc1cc(/C=C2\C(=N)N3N=C(S(C)(=O)=O)SC3=NC2=O)ccc1OCc1ccccc1C : 48.25

Measured % fibril formation of COc1c(Br)cc(/C=C2\SC(=O)NC2=O)cc1Br : 0.37

Measured % fibril formation of O=C(O)c1cccnc1Nc1cccc(C(F)(F)F)c1 [drawing 60] : 4.83

Measured % fibril formation of CCOc1ccccc1-c1nc(-c2ccncc2)no1 : 0.00

Measured % fibril formation of O=C(c1cc(O)c(O)c([N+](=O)[O-])c1)c1ccccc1F [drawing 69] : 0.32

Measured % fibril formation of O=C(NCc1cc(Br)cc(Br)c1O)c1ccccc1 : 50.96

====

Target: human wild type TTR (Homo sapiens (Human))
Test: Isothermal titration calorimetry (ITC) of ligands against TTR
Format: binding
Conditions: ITC
PROPERTY: ΔH binding enthalpy (kcal/mol)
State just the number; it will be interpreted in kcal/mol.

NCCOCCOCCOc1c(Cl)cc(Nc2ccccc2C(=O)O)cc1Cl
-8.85
Cc1n[nH]c(C)c1CCCOc1ccccc1F
-9.01
O=C(O)c1ccccc1Nc1cc(Cl)c(OCCOCCOCCNC(=S)Nc2ccc3c(c2)C(=O)OC32c3ccc(O)cc3Oc3cc(O)ccc32)c(Cl)c1
-6.86

Measured ΔH binding enthalpy of CN1C(=N)NC(=O)/C1=C/c1cc(Br)c(O)c(Br)c1 : -6.66

====

Molecular target: human wild type TTR (Homo sapiens (Human), UniProt P02766)
Assay: Isothermal titration calorimetry (ITC) of ligands against TTR
Format: binding
Settings: ITC
The following compounds are shown together with reported ΔG binding free energy values.
State just the number; it will be interpreted in kcal/mol.

O=C(O)c1ccc(-c2c(F)cccc2F)cc1 [Compound 1, reference compound]
-9.74
NCCOCCOCCOc1c(Cl)cc(Nc2ccccc2C(=O)O)cc1Cl [Compound 4]
-8.93
Cc1n[nH]c(C)c1CCCOc1ccccc1F [Compound 7]
-8.86
CN1C(=N)NC(=O)/C1=C/c1cc(Br)c(O)c(Br)c1 [Compound 14]
-9.02
O=C(O)c1ccccc1Nc1cc(Cl)c(OCCOCCOCCNC(=S)Nc2ccc3c(c2)C(=O)OC32c3ccc(O)cc3Oc3cc(O)ccc32)c(Cl)c1 [Compound 5]
-8.30

Measured ΔG binding free energy of O=C(c1cc(O)c(O)c([N+](=O)[O-])c1)c1ccccc1F [Ro 41-0960, reference compound] : -9.18

Measured ΔG binding free energy of O=C(O)Cc1ccccc1Nc1c(Cl)cccc1Cl [Diclofenac, reference compound] : -8.78

====

Here's what we have: IC50 numbers for TTR (Homo sapiens (Human), UniProt P02766).
State just the number; it will be interpreted in µM.

Some compounds with recorded IC50:
CN1C(=N)NC(=O)/C1=C/c1cc(Br)c(O)c(Br)c1 [drawing 72]
1.15
CCOc1cc(C2NC(C(=O)O)CS2)cc(Br)c1OCc1ccccc1C (stereo not shown)
4.93
O=C(NCc1cc(Br)cc(Br)c1O)c1ccccc1
10
CC1(C)NC(=O)C(C#N)=C(SCc2ccccc2)S1
0.433
CSC1=NSC2=NC(=O)/C(=C\c3cccc4ccccc34)C(=N)N12
4.88
Cc1[nH]c2ccccc2c1C(C#N)(C#N)C1C(=O)c2ccccc2C1=O
0.586

Per the reported TTR (Homo sapiens (Human), UniProt P02766) data, CC(=O)Nc1ccc(Nc2nc3ccccc3nc2NS(=O)(=O)c2ccc(C)cc2)cc1 has IC50 of 10.6

Per the reported TTR (Homo sapiens (Human), UniProt P02766) data, COc1cc(/C=C2\C(=N)N3N=C(S(C)(=O)=O)SC3=NC2=O)ccc1OCc1ccccc1C has IC50 of 9.76

Per the reported TTR (Homo sapiens (Human), UniProt P02766) data, O=C(c1cc(O)c(O)c([N+](=O)[O-])c1)c1ccccc1F [drawing 69] has IC50 of 0.755

Per the reported TTR (Homo sapiens (Human), UniProt P02766) data, COc1c(Br)cc(/C=C2\SC(=O)NC2=O)cc1Br has IC50 of 0.301
